- MEASUREMENT TARGET: Pantothenate synthetase (Mycobacterium tuberculosis (strain ATCC 25618 / H37Rv)) (UniProt P9WIL5)
- Sequence (P9WIL5 whole entry, looked up): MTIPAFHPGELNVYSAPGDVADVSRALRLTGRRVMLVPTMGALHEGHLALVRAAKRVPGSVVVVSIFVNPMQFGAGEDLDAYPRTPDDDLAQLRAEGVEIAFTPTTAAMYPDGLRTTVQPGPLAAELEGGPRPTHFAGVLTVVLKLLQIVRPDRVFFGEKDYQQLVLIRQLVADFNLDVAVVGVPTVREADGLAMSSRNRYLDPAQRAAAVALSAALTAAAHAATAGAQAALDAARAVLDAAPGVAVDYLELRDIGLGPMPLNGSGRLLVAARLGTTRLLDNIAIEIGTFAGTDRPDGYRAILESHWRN
- METHOD: Coupled enzyme confirmation of inhibitors against recombinant Mtb PanC (AID 375);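 also: 0% = full reaction with vehicle and 100% = no enzyme background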
- CONDITIONS: coupled enzyme assay; at 10 µM, stronger effect = higher value
Active and inactive are the calls of the source. No rule for the calls is given here.
This listing pairs compounds with measured inhibition.

Field: example entries. Status: answers known.
>  <COMPOUND>
COCCSc1nnc(NC(=O)CSCc2ccccc2)s1

>  <inhibition>
0% (inactive)

$$$$
>  <COMPOUND>
CCOC(=O)C1CCCN(CC(=O)NC2CC2)C1 (stereo unspecified)

>  <inhibition>
6% (inactive)

$$$$
>  <COMPOUND>
CN1CCN(c2oc(COc3ccc(-c4ccccc4)cc3)nc2C#N)CC1

>  <inhibition>
0% (inactive)

$$$$
>  <COMPOUND>
Cc1cc(Cl)ccc1OCC(=O)Nn1c(C)ccc1C

>  <inhibition>
0% (inactive)

$$$$

Moving on to the next compound.
Entry COC(=O)c1ccc(NC(=O)CN2CCN(c3ccc(Cl)cc3)CC2)cc1 — recorded inhibition = 1% (inactive)

----------
This listing pairs compounds with measured inhibition.
- MEASUREMENT TARGET: Pantothenate synthetase (Mycobacterium tuberculosis (strain ATCC 25618 / H37Rv))
- METHOD: Coupled enzyme confirmation of inhibitors against recombinant Mtb PanC (AID 375);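 also: 0% = full reaction with vehicle and 100% = no enzyme background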
- CONDITIONS: coupled enzyme assay; at 10 µM, stronger effect = higher value
Numeric only. Scale: %

Field: example entries. Status: answers known.
>  <COMPOUND>
O=C(NCc1cccs1)C(Cc1ccccc1)NS(=O)(=O)c1cccs1 (stereo unspecified)

>  <inhibition (%)>
8

$$$$
>  <COMPOUND>
Cc1cc(C(=O)O)ccc1-n1c(C)ccc1C

>  <inhibition (%)>
6

$$$$
>  <COMPOUND>
CCOCCCNCC(=O)N1CCN(S(=O)(=O)c2ccc(C)cc2)CC1

>  <inhibition (%)>
0

$$$$
>  <COMPOUND>
Cc1cc(C)nc(SCc2ccc3nonc3c2)n1

>  <inhibition (%)>
1

$$$$
>  <COMPOUND>
O=C(NCCc1ccccc1)C1CCN(S(=O)(=O)N2CCC3(CC2)OCCO3)CC1

>  <inhibition (%)>
4

$$$$

Moving on to the next compound.
Entry CCOc1cc(C2C(C(=O)c3ccccc3)=C(C(=O)OC)Nc3nnnn32)ccc1O (stereo unspecified) — recorded inhibition = 0

----------
- MEASUREMENT TARGET: Pantothenate synthetase (Mycobacterium tuberculosis (strain ATCC 25618 / H37Rv))
- METHOD: Coupled enzyme confirmation of inhibitors against recombinant Mtb PanC (AID 375);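 also: 0% = full reaction with vehicle and 100% = no enzyme background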
- CONDITIONS: coupled enzyme assay; at 10 µM, stronger effect = higher value
PARAMETER: inhibition (%)
Numeric only. Scale: %

Field: example entries. Status: answers known.
>  <MOLECULE>
CCOC(=O)CSc1nc2cccnc2n1-c1ccc(F)cc1

>  <inhibition [%]>
2

$$$$
>  <MOLECULE>
C=CCn1c(SCC(=O)Nc2ccc3c(c2)OCO3)nc2ccccc2c1=O

>  <inhibition [%]>
2

$$$$
>  <MOLECULE>
O=C(NCCC1=CCCCC1)C1CCN(C(=O)Nc2ccccc2)CC1

>  <inhibition [%]>
0

$$$$
>  <MOLECULE>
CCCCOC(=O)CNc1nnc(SCC(=O)OCC)[nH]c1=O

>  <inhibition [%]>
3

$$$$
>  <MOLECULE>
CCCOc1cc(C)c(S(=O)(=O)N2CCN(C)CC2)cc1C

>  <inhibition [%]>
4

$$$$
>  <MOLECULE>
CCn1nc(C(=O)O)c(=O)c2cc3c(cc21)OCO3

>  <inhibition [%]>
5

$$$$
>  <MOLECULE>
CC(C)Cc1ccc(C(C)C(=O)O)cc1 (stereo unspecified)

>  <inhibition [%]>
0

$$$$
>  <MOLECULE>
COCCn1c(N)c(C(=O)Nc2sc3c(c2C(=O)OC)CCCC3)c2nc3ccccc3nc21

>  <inhibition [%]>
1

$$$$
>  <MOLECULE>
COc1nc(Oc2ccc(=O)n(C)n2)nc(N(C)C)n1

>  <inhibition [%]>
4

$$$$
>  <MOLECULE>
O=C(NCCN1CCOCC1)c1ccc2c(c1)N(Cc1ccccc1F)C(=O)CS2

>  <inhibition [%]>
0

$$$$

Moving on to the next molecule.
Entry COc1ccccc1Oc1coc2c(CN3CCN(C)CC3)c(O)ccc2c1=O — recorded inhibition = 0
